Molecular target: human kidney renin (Homo sapiens, UniProt P00797)
Construct: Human renin was prepared from human kidney
Sequence (P00797 67-406): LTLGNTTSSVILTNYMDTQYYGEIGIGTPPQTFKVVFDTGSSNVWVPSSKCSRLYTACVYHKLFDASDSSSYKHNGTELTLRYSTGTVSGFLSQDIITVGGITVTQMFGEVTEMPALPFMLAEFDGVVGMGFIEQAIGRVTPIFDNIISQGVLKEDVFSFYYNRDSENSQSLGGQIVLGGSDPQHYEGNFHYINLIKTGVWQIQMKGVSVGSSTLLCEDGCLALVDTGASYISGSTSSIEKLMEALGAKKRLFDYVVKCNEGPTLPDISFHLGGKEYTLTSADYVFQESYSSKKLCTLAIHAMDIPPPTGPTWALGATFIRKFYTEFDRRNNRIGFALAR
Experiment: Radioimmunoassay Screen for Renin Inhibitors (in vitro angiotensin I generation, quantitated by radioimmunoassay)
Conditions: purified human plasma angiotensinogen, pH 6.0, one hour at 37° C., read-out: Renin Inhibiton IC50
Threshold check on IC50: strictly below 20 µM is fulfilled; on or above 20 µM is not fulfilled.

SMILES_STRUCTURE	TARGET_ENTITY	LABEL_CLASS
CC(C)C[C@H](NC(=O)[C@@H](CC(=O)N1CCOCC1)Cc1cccc2ccccc12)C(=O)N[C@@H](CC1CCCCC1)[C@@H](O)c1ccccn1	human kidney renin (Homo sapiens, UniProt P00797)	fulfilled
CC(C)C[C@H](NC(=O)[C@@H](CC(=O)O)Cc1cccc2ccccc12)C(=O)N[C@@H](CC1CCCCC1)[C@@H](O)c1ccccn1	human kidney renin (Homo sapiens, UniProt P00797)	fulfilled
O=C(N[C@@H](Cc1c[nH]cn1)C(=O)N[C@@H](CC1CCCCC1)[C@@H](O)c1nccs1)[C@@H](CC(=O)N1CCOCC1)Cc1ccccc1	human kidney renin (Homo sapiens, UniProt P00797)	fulfilled
COc1cc(C[C@H](CC(=O)O)C(=O)N[C@@H](CC(C)C)C(=O)N[C@@H](CC(C)C)[C@@H](O)c2nccs2)cc(OC)c1OC	human kidney renin (Homo sapiens, UniProt P00797)	fulfilled
CC(C)C[C@H](NC(=O)[C@@H](CC(=O)NC(C)(C)C)Cc1ccccc1)C(=O)N[C@@H](CC(C)C)[C@@H](O)c1nccs1	human kidney renin (Homo sapiens, UniProt P00797)	not fulfilled
CC(C)C[C@H](NC(=O)[C@@H](CC(=O)NCCCN1CCOCC1)Cc1cccc2ccccc12)C(=O)N[C@@H](CC(C)C)[C@@H](O)c1nccs1	human kidney renin (Homo sapiens, UniProt P00797)	fulfilled
